target: Serine/threonine-protein kinase mTOR (Homo sapiens, UniProt P42345); assay: Inhibition of mTOR in PTEN deficient human PC3 cells assessed as inhibition of p70S6K phosphorylation; type: cell-based, PC-3
Give measured pIC50 for each item. Keep answers brief.
Answers are plain numbers, as −log10 of the molar value.

Reference set, count: 3
{"compound-structure-string": "CCNC(=O)Nc1ccc(-c2nc(N3CCOC[C@@H]3CC)c3c(cnn3C)n2)cc1", "measurement-name": "pIC50", "experimental-result": 7.82}
{"compound-structure-string": "CCNC(=O)Nc1ccc(-c2nc(N3CCOC[C@@H]3C)c3c(cnn3C)n2)cc1", "measurement-name": "pIC50", "experimental-result": 7.33}
{"compound-structure-string": "CCNC(=O)Nc1ccc(-c2nc(N3CCOC[C@@H]3CC)c3c(ccn3C)n2)cc1", "measurement-name": "pIC50", "experimental-result": 7.40}

I'm hoping you can list pIC50 for every compound here, please.
1. CCNC(=O)Nc1ccc(-c2nc(N3C[C@@H]4C[C@H]3CO4)c3c(cnn3C)n2)cc1
2. CCNC(=O)Nc1ccc(-c2nc(N3CCOC[C@@H]3C)c3c(ccn3C)n2)cc1

Reply:
[6.57, 6.96]

Take each entry in turn and give its pIC50.
1. CCNC(=O)Nc1ccc(-c2nc(N3CCCOCC3)c3c(ncn3C)n2)cc1
2. CCNC(=O)Nc1ccc(-c2nc(N3CCOC[C@@H]3CC)c3c(ncn3C)n2)cc1

Reply:
1: 5.05; 2: 6.82

Record "CCNC(=O)Nc1ccc(-c2nc(N3CCOC[C@@H]3CC)c3c(n2)c(C)nn3C)cc1" , field pIC50: 8.10

----------
molecular target: Phosphatidylinositol 4,5-bisphosphate 3-kinase catalytic subunit alpha isoform (Homo sapiens); assay: Displacement of TAMRA-PIP3 from PI3Kalpha GRP-1 pleckstrin homology domain (unknown origin) assessed as formation of 3,4,5-inositoltriphosphate after 30 mins by fluorescence polarization assay
measurement-name: pIC50
One number for each entry, as −log10 of the molar value.

{"compound-structure-string": "CCNC(=O)Nc1ccc(-c2nc(N3CCCOCC3)c3c(ncn3C)n2)cc1", "experimental-result": 5.19}

Let us move to another entry and its pIC50.
Recorded result, "CCNC(=O)Nc1ccc(-c2nc(N3CCOC[C@H]3C)c3c(ncn3C)n2)cc1" , pIC50: 5.24

----------
target: Phosphatidylinositol 4,5-bisphosphate 3-kinase catalytic subunit alpha isoform (Homo sapiens); test: Displacement of TAMRA-PIP3 from PI3Kalpha GRP-1 pleckstrin homology domain (unknown origin) assessed as formation of 3,4,5-inositoltriphosphate after 30 mins by fluorescence polarization assay
measurement-name: Ki

Past entries and their recorded results:
{"compound-structure-string": "CCNC(=O)Nc1ccc(-c2nc(N3CCOC[C@@H]3C)c3nc(C(C)(C)O)n(C)c3n2)cc1", "experimental-result": "0.39 µM"}
{"compound-structure-string": "CCNC(=O)Nc1ccc(-c2nc(N3C[C@@H]4C[C@H]3CO4)c3c(cnn3C)n2)cc1", "experimental-result": "5.14 µM"}
{"compound-structure-string": "CCNC(=O)Nc1ccc(-c2nc(N3CCOC[C@@H]3C)c3c(ccn3C)n2)cc1", "experimental-result": "> 10 µM"}

Consider "CCNC(=O)Nc1ccc(-c2nc(N3CCOC[C@@H]3C)c3c(ncn3CC)n2)cc1" . Its measured Ki is > 10 µM
